Test system: HCC-2998 colon
MEASUREMENT_DESCRIPTION: NCI-60 one-dose screen, 48 h
ASSAY_CONTEXT: 10 µM unless noted
Method: Growth inhibition of the HCC-2998 human tumor cell line is measured as a screen for anti-cancer activity. Cells are grown in 96 well plates and exposed to the test compound for 48 hours. Compounds are tested at a single concentration, which is 10^-5 M for most compounds. The reported endpoint is percent growth (GI% or GIPRCNT), where numbers from 0 - 100% represent growth inhibition, and numbers from -100% - 0 represent cell death. For example, a value of 40 represents 60% growth inhibition. […]
The panel holds about 83,000 compounds, 20% with a hit somewhere; the sample as a whole holds those more often. Calls of active or inactive are those of the source. Rule for the calls: active = growth percent below 10; inactive = the rest.
Use one of these outcomes when replying: class 1 (active), class 0 (inactive)

Q: Test call, this molecule: Oc1ccc(Nc2ccccc2)cc1
A: class 0

Q: What classification did C/C(=C(/c1ccccc1)c1ccc(N2C(=O)c3cccc4c(NCc5ccccc5)ccc(c34)C2=O)cc1)c1ccccc1 end up with in this test?
A: class 0

Q: Fill in: this test's call for CC(C)/C=C/CC[C@](C)(O)[C@H]1CC[C@]2(C)[C@@H]1CC[C@@H]1[C@@]3(C)C/C(=C/c4cccc(C(F)(F)F)c4)C(=O)C(C)(C)[C@@H]3CC[C@]12C is ___
A: class 0

Q: # outcome recorded in this test, key = C=C1C(=O)O[C@H]2[C@H]1CC/C(COC(=O)NCc1c[nH]c3ccccc13)=C\CC[C@@]1(C)O[C@@H]21
A: class 0

Q: # outcome recorded in this test, key = COc1ccc(/C=C(\C#N)c2cc3ccccc3n2C(C)=O)cc1
A: class 0

Q: What is the recorded call for this molecule in the test? N#CC1=C(N)Oc2ccc3ccccc3c2C1c1ccccc1Cl (centres undefined)
A: class 0

Q: Fill in: this test's call for CSc1ccc(N(C)c2nc(C)nc3c2CCC3)cc1 is ___
A: class 1

Q: Would you mind telling me which call this test gave Cc1ccccc1-c1nc(C(Cl)Cl)nc2cc(-c3ccccc3)nn12 ?
A: class 0

Q: For COc1ccc(-c2nc3ccccn3c2-c2nc3ccc(Cl)cc3[nH]2)cc1 , which call appears in the assay record?
A: class 0

* * *

System: DU-145 prostate
MEASUREMENT_DESCRIPTION: NCI-60 one-dose screen, 48 h (100 = growth as untreated, 0 = no growth, -100 = all killed)
ASSAY_CONTEXT: 10 µM unless noted
About 83,000 compounds went through this panel and 20% of them were active in at least one assay; those are over-represented in the sample as a whole.
ENDPOINT: growth (%)
Reply numerically in %, unit not repeated.

Q: I am curious: what growth value has been reported for COc1cc2c(cc1-c1c(C)noc1C)ncc1nc(C3CCC(F)(F)CC3)n([C@@H](C)COC(F)F)c12 ?
A: 66.9

Q: Query: growth; subject: O=C(c1ccccc1)C(CN1CCOCC1)c1ccccc1 (centres undefined)
A: 28.9

Q: GET /values?readout=growth&item= CC1(C)NCCC[C@]2(C)[C@H]3CC[C@@H]4[C@H]5[C@H](C(=O)/C=C/c6ccccn6)CC[C@]5(CO)CC[C@@]4(C)[C@]3(C)CC[C@@H]12
A: 67.7

Q: Endpoint output: growth of O=C1c2ccccc2NC(c2cn(-c3ccccc3)nc2-c2cccs2)N1Cc1ccccc1 (centres undefined) . Value?
A: 97.6

Q: Fill in: growth of Cn1c(=O)c2c(ncn2CCC(=O)Nc2ccc(F)cc2)n(C)c1=O is ___
A: 105

Q: Name the reported growth value associated with the compound O=C1c2cccc3cccc(c23)C(=O)N1CC#Cc1ccc2c3c(cccc13)C(=O)N(CCO)C2=O
A: 88.6

Q: Report growth for c1ccc2[nH]c(-c3cc(-c4ccc5c(c4)OCO5)n[nH]3)nc2c1 please.
A: 69.1

Q: State the recorded growth for this entry: COC(=O)CCCCCn1c2ccccc2c2c3c(c4c5ccccc5[nH]c4c21)C(=O)N(O)C3=O
A: 80.6

Q: May I ask what growth has been recorded for Fc1ccc(NCc2nnc(-c3ccc(Cl)cc3)o2)cc1 ?
A: 95.5
